Measured IC50 (Glycogen synthase kinase-3 (Sus scrofa, UniProt B2LUN4+I6LNT8))
Just the number in µM, nothing appended.

C#CCN(C)Cc1ccnc(NC(=O)Nc2cccc3c2C2CCCCN2C3=O)c1 (racemic): 0.011

With Glycogen synthase kinase-3 (Sus scrofa, UniProt B2LUN4+I6LNT8) as the test system, C#Cc1ccnc(NC(=O)Nc2cccc3c2[C@@H]2CCCCN2C3=O)c1 showed IC50 of 0.09

With Glycogen synthase kinase-3 (Sus scrofa, UniProt B2LUN4+I6LNT8) as the test system, O=C(Nc1cccc(-c2cn(CCNc3c4c(nc5ccccc35)CCCC4)nn2)n1)Nc1cccc2c1C1CCCCN1C2=O (racemic) showed IC50 of 4.2

###

Tested on: HCT-116
ASSAY_DETAILS: Cytotoxicity against human HCT116 cells assessed as growth inhibition incubated for 48 hrs by Hoechst 33342 staining based assay
Format: cell-based
CONDITIONS_USED: HCT-116, 48 h
QUANTITY_MEASURED: pIC50
Scale for pIC50: -log10 of concentration given in mol/L; no unit attached.

Here's what some known entries look like.
O=C(Nc1cc(-c2cn(CCNc3c4c(nc5ccccc35)CCCC4)nn2)ccn1)Nc1cccc2c1[C@@H]1CCCCN1C2=O: 5.57
O=C(Nc1cc(-c2cn(CCNc3c4c(nc5ccccc35)CCCC4)nn2)ccn1)Nc1cccc2c1C1CCCCN1C2=O (racemic): 5.52
O=C(Nc1cc(-c2cn(CCNc3c4c(nc5ccccc35)CCCC4)nn2)ccn1)Nc1cccc2c1[C@H]1CCCCN1C2=O: 5.66
CN(Cc1ccnc(NC(=O)Nc2cccc3c2C2CCCCN2C3=O)c1)Cc1cn(CCNc2c3c(nc4ccccc24)CCCC3)nn1 (racemic): 5.70
O=C(Nc1cc(COCc2cn(CCNc3c4c(nc5ccccc35)CCCC4)nn2)ccn1)Nc1cccc2c1C1CCCCN1C2=O (racemic): 5.40
O=C(Nc1cccc(-c2cn(CCNc3c4c(nc5ccccc35)CCCC4)nn2)n1)Nc1cccc2c1C1CCCCN1C2=O (racemic): 4.77

Field pIC50 (entry O=C(Nc1cc(CCc2cn(CCNc3c4c(nc5ccccc35)CCCC4)nn2)ccn1)Nc1cccc2c1C1CCCCN1C2=O (racemic) ) reads 5.96

###

Some compounds, each annotated with its measured pIC50.
Tested on: Huh-7
ASSAY_DETAILS: Cytotoxicity against human HuH7 cells assessed as growth inhibition incubated for 48 hrs by Hoechst 33342 staining based assay
Assay type: cell-based
CONDITIONS_USED: Huh-7, 48 h
Scale for pIC50: -log10 of concentration given in mol/L; no unit attached.

Here's what some known entries look like.
O=C(Nc1cc(-c2cn(CCNc3c4c(nc5ccccc35)CCCC4)nn2)ccn1)Nc1cccc2c1C1CCCCN1C2=O (racemic): 5.52
O=C(Nc1cc(CCc2cn(CCNc3c4c(nc5ccccc35)CCCC4)nn2)ccn1)Nc1cccc2c1C1CCCCN1C2=O (racemic): 5.54

Here is the next item to consider.
Field pIC50 (entry O=C(Nc1cc(-c2cn(CCNc3c4c(nc5ccccc35)CCCC4)nn2)ccn1)Nc1cccc2c1[C@H]1CCCCN1C2=O ) reads 5.46

###

Tested on: MDR1
ASSAY_DETAILS: in vitro
CONDITIONS_USED: dog, MDCK-MDR1
Description: Apparent permeability across basolateral to apical side in MDCK2-MDR1 cells by HPLC analysis
Some molecules, each annotated with its measured Papp B→A.
Just the number in ×10⁻⁶ cm/s, nothing appended.

Here's what some known entries look like.
CN(Cc1ccnc(NC(=O)Nc2cccc3c2C2CCCCN2C3=O)c1)Cc1cn(CCNc2c3c(nc4ccccc24)CCCC3)nn1 (racemic): 8.4
O=C(Nc1cc(-c2cn(CCNc3c4c(nc5ccccc35)CCCC4)nn2)ccn1)Nc1cccc2c1C1CCCCN1C2=O (racemic): 16.8

Here is the next item to consider.
With MDR1 as the test system, O=C(Nc1cc(COCc2cn(CCNc3c4c(nc5ccccc35)CCCC4)nn2)ccn1)Nc1cccc2c1C1CCCCN1C2=O (racemic) showed Papp B→A of 20.8
